Tested on: Canis familiaris
Test: Inotropic activity of compound was evaluated as % increase in cardiac force at a dose of 1.87 (mg/Kg) in anesthetized dog
Type: functional, Canis lupus familiaris, Heart
Returns: string. Value is t if measured CF is below 30%, and f if it is greater than or equal to it.

| compound | category.label |
| --- | --- |
| COc1cc2nc(-c3ccccc3)nc(C)c2cc1OC | t |
| COc1cc2c(cc1OC)C(C)=[N+]([O-])C(c1ccc(C)cc1)N2 (stereo not given) | f |
| COc1cc2c(cc1OC)C(C)=[N+]([O-])C(c1c(F)c(F)c(F)c(F)c1F)N2 (stereo not given) | f |
| COc1ccc(C2Nc3cc(OC)c(OC)cc3C(C)=[N+]2[O-])cc1 (stereo not given) | t |
| COc1cc2c(cc1OC)C(C)=[N+]([O-])C(c1ccccc1)N2 (stereo not given) | f |

----------
Tested on: Canis familiaris
Test: Inotropic activity of compound was evaluated as % change in heart rate at a dose of 8.75 (mg/Kg) in anesthetized dog
Type: functional, Canis lupus familiaris
Classify by measured HR: criterion met if it is equal to or exceeds 20%, criterion not met if it is smaller.

| molecule | category.label |
| --- | --- |
| COc1cc2c(cc1OC)C(C)=[N+]([O-])C(c1ccncc1)N2 (stereo not drawn) | criterion not met |
| COc1cc2c(cc1OC)C(C)=[N+]([O-])C(c1ccccc1)N2 (stereo not drawn) | criterion met |
| COc1cc2c(cc1OC)C(C)=[N+]([O-])C(c1ccc3c(c1)OCO3)N2 (stereo not drawn) | criterion met |
| COc1cc2c(cc1OC)C(C)=[N+]([O-])C(c1cccs1)N2 (stereo not drawn) | criterion met |
| COc1cc2c(cc1OC)C(C)=[N+]([O-])C(c1cc3c(cc1[N+](=O)[O-])OCO3)N2 (stereo not drawn) | criterion not met |
| COc1cc2nc(-c3ccccc3)[n+]([O-])c(C)c2cc1OC | criterion not met |
| COc1cc2c(cc1OC)C(C)=[N+]([O-])C(c1ccccn1)N2 (stereo not drawn) | criterion not met |

----------
Test system: Canis familiaris
Assay: Inotropic activity of compound was evaluated as % change in mean arterial blood pressure at a dose of 1.87 (mg/Kg) in anesthetized dog
Type: functional, Canis lupus familiaris
Collected MABP values appear next to each entry.

| compound | MABP / % |
| --- | --- |
| COc1cc2c(cc1OC)C(C)=[N+]([O-])C(c1c(F)c(F)c(F)c(F)c1F)N2 (stereo not given) | 2 |
| COc1cc2nc(-c3ccccc3)nc(C)c2cc1OC | -20 |
| COc1ccc(C2Nc3cc(OC)c(OC)cc3C(C)=[N+]2[O-])cc1 (stereo not given) | -6 |
| COc1cc2c(cc1OC)C(C)=[N+]([O-])C(c1ccccc1)N2 (stereo not given) | -3 |
| COc1cc2c(cc1OC)C(C)=[N+]([O-])C(c1ccc(C)cc1)N2 (stereo not given) | -6 |
